Target: Lck (Homo sapiens, UniProt P06239)
Construct: purchased Eurofins Pharma Discovery Services UK Limited
Sequence (P06239 whole entry): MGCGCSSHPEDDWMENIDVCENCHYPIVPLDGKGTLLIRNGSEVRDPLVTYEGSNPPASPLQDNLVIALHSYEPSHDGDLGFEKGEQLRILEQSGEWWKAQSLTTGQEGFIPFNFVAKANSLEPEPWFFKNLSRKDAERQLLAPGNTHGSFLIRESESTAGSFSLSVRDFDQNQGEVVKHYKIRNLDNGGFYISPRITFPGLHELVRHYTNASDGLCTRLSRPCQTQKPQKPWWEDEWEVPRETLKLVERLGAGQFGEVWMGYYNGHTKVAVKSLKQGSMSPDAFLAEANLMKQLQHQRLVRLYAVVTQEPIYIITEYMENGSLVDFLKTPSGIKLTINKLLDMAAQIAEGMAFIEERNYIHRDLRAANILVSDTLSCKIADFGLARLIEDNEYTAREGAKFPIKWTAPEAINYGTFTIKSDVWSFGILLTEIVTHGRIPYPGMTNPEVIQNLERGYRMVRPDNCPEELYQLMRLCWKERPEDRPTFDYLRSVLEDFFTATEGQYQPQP
Assay: In vitro Lck activation kinase study (Eurofins)
Assay type: biochemical
Settings: 10 μM; Table 7
Non-standard residues stand in square brackets, D forms with d. Residues, ends and D or L forms follow the SMILES beside them. ξ: configuration not given here. ξGly(decyl) = CCCCCCCCCCC(N)C(=O)O
MEASUREMENT_LABEL: Lck activation above control (10 μM) (%)
# unit: % | format: bare number

COMPOUND: CCCCCCCCCCC(N)C(=O)NC(CCCCCCCCCC)C(=O)O (stereo not shown)
Lck activation above control (10 μM) [%]: 18

COMPOUND: CCCCCCCCCCC(N)C(=O)NC(CCCCCCCCCC)C(=O)NC(CCCCCCCCCC)C(=O)O (stereo not shown)
Lck activation above control (10 μM) [%]: 0

COMPOUND: CCCCCCCCCCC(N)C(=O)NC(CCCCCCCCCC)C(=O)NC(CCCCCCCCCC)C(=O)NC(CCCCCCCCCC)C(=O)O (stereo not shown) [H-(2Adod)4-OH] (H-[ξGly(decyl)][ξGly(decyl)][ξGly(decyl)][ξGly(decyl)]-OH)
Lck activation above control (10 μM) [%]: 0

Continue with the compound presented below.
Asked: So what's the measured Lck activation above control (10 μM) for this one? CCCCCCCCCCC(N)C(=O)O (stereo not shown)
Given back: 0
